Origin of values: patent US20240067748A1

Documented Response across a set of binders
Target: T1, human TROP2 protein (Sino Biological, #10428-H08H) (human, UniProt P09758 27-274)
T1 construct: bought protein; also called human Trop2 protein antigen (His tag); not shown: His tag
T1 sequence (looked up): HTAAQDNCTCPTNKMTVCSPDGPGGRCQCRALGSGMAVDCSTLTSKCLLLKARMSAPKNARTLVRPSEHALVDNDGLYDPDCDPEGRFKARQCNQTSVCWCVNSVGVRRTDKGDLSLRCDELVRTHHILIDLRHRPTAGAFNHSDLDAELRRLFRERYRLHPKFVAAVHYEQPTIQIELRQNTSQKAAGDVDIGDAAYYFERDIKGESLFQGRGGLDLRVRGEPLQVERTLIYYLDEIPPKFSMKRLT
Assay: BLI, Octet RED96, AHC sensor
// response body must contain only the number

PR001156 (antibody, human IgG1, kappa, V domains shown, fully human IgG1/kappa; also called antibody No. (19)) VH: QVQLVESGGGVVQPGRSLRLSCEGSGFTFSHYGMHWVRQAPGKGLEWVAVIWYDGIKKNYVDSLKGRFTISRDNSKNTLYLQMNSLRAEDTAVYYCARDGGFGELNYYGMDVWGQGTTVTVSS VL: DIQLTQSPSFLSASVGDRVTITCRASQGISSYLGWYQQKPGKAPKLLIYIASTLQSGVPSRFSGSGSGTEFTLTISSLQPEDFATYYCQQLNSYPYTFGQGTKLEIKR: 0.354

For the next question, use this binder.
What does the data say about its Response? Entry: PR001133 (antibody, human IgG1, kappa, V domains shown, fully human IgG1/kappa; also called antibody No. (5)) VH: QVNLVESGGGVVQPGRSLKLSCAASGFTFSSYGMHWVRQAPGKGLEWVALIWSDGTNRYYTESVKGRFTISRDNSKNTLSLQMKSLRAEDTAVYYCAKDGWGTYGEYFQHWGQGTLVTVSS VL: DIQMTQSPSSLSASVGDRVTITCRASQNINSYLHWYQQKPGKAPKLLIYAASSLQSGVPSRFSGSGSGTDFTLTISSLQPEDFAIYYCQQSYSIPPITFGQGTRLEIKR 0.386
